# STUDY_SYSTEM: Adenosine receptor A1 (Homo sapiens)
# EXPERIMENT_SUMMARY: Agonist activity at human A1 receptor expressed in CHO cells assessed as enhancement of R-PIA mediated ERK1/2 phosphorylation at 3 uM after 5 mins by Alpha-Screen assay
# Format: functional, cell-based
ASSAY_READOUT: Activity (%)

[
  {
    "CHEM_SMILES": "Nc1scc(-c2cc(C(F)(F)F)cc(C(F)(F)F)c2)c1C(=O)c1cccc(C(F)(F)F)c1",
    "Activity, %": 90
  },
  {
    "CHEM_SMILES": "Cc1sc(N)c(C(=O)c2cccc(C(F)(F)F)c2)c1-c1cccc(C(F)(F)F)c1",
    "Activity, %": 90
  },
  {
    "CHEM_SMILES": "Cc1sc(N)c(C(=O)c2ccccc2)c1-c1cc(C(F)(F)F)cc(C(F)(F)F)c1",
    "Activity, %": 83
  },
  {
    "CHEM_SMILES": "Cc1ccc(C(=O)c2c(N)sc(C)c2-c2cc(C(F)(F)F)cc(C(F)(F)F)c2)cc1",
    "Activity, %": 92
  },
  {
    "CHEM_SMILES": "Cc1sc(N)c(C(=O)c2ccccc2)c1-c1cccc(C(F)(F)F)c1",
    "Activity, %": 77
  }
]
